// reported pEC50 per item
System: GTL16
assay_overview: GTL16 cell assay (EC50)
Format: cell-based
cond: Homo sapiens, GTL 16; Table 1
pEC50: −log10 of the molar value.
assay_readout: pEC50

compound | assay_readout | result
Clc1ccc2nnc(Cc3ccc4ncccc4c3)n2n1 | pEC50 | 5.00 to 6.00
CNC(=O)c1ccc(-c2ccc3nnc(C(C)c4ccc5ncsc5c4)n3n2)cc1F (stereo not drawn) | pEC50 | > 7.00
N#Cc1cc(-c2ccc3nnc(Cc4ccc5ncccc5c4)n3n2)ccc1F | pEC50 | 5.00 to 6.00
Fc1cccc(-c2ccc3nnc(Cc4ccc5ncccc5c4)n3n2)c1 | pEC50 | > 7.00
NC(=O)c1ccc(Oc2ccc3nnc(Cc4ccc5ncccc5c4)n3n2)cc1 | pEC50 | 4.30 to 5.00
O=S(=O)(c1ccc(-c2ccc3nnc(Cc4ccc5ncccc5c4)n3n2)cc1)N1CCOCC1 | pEC50 | 6.00 to 7.00
CCNC(=O)c1ccc(-c2ccc3nnc(Cc4ccc5ncccc5c4)n3n2)cc1F | pEC50 | > 7.00
O=S(=O)(NC1CC1)c1ccc(-c2ccc3nnc(Cc4ccc5ncccc5c4)n3n2)cc1 | pEC50 | 6.00 to 7.00
c1cnc2ccc(Cc3nnc4ccc(C5CC5)nn34)cc2c1 | pEC50 | 6.00 to 7.00

---

pIC50: −log10 of the molar value.
Parameter pIC50, tested on MET kinase (c-MET), kinase domain of human Met (Homo sapiens), listed per item.
Sequence (P08581 1078-1345 limits assumed): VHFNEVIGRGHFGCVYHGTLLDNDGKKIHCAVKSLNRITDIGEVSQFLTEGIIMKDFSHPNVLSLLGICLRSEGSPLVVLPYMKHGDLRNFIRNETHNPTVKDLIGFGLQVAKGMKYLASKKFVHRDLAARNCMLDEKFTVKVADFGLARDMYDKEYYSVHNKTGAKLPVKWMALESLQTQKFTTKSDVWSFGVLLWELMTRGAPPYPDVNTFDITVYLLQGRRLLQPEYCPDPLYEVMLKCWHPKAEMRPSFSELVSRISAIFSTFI

structure | pIC50
Cc1ccc(-c2ccc3nnc(Cc4ccc5ncccc5c4)n3n2)cc1 | > 7.00
CNC(=O)c1ccc(-c2ccc3nnc(Cc4c(F)cc5ncccc5c4F)n3n2)cc1F | > 7.00
CC(=O)Nc1cccc(-c2ccc3nnc(Cc4ccc5ncccc5c4)n3n2)c1 | 6.00 to 7.00

---

Overview of recorded pEC50 for various molecules
Test system: GTL16
assay_overview: GTL16 cell assay (EC50)
Type: cell-based
cond: Homo sapiens, GTL 16; Table 1
pEC50: −log10 of the molar value.
assay_readout: pEC50

structure | experimental_system | result
NCc1ccc(-c2ccc3nnc(Cc4ccc5ncccc5c4)n3n2)cc1 | GTL16 | > 7.00
CC(=O)Nc1cccc(-c2ccc3nnc(Cc4ccc5ncccc5c4)n3n2)c1 | GTL16 | 5.00 to 6.00
CNc1ccc(-c2ccc3nnc(Cc4ccc5ncccc5c4)n3n2)cc1 | GTL16 | > 7.00
CN(C)S(=O)(=O)c1ccc(-c2ccc3nnc(Cc4ccc5ncccc5c4)n3n2)cc1 | GTL16 | 5.00 to 6.00
Fc1cc2ncccc2c(F)c1Cc1nnc2ccc(Cl)nn12 | GTL16 | 6.00 to 7.00
Fc1ccccc1-c1ccc2nnc(Cc3ccc4ncccc4c3)n2n1 | GTL16 | 6.00 to 7.00
CCNS(=O)(=O)c1cccc(-c2ccc3nnc(Cc4ccc5ncccc5c4)n3n2)c1 | GTL16 | > 7.00
c1cnc2ccc(Cc3nnc4ccc(N5CCCCC5)nn34)cc2c1 | GTL16 | 6.00 to 7.00
Fc1ccc(-c2ccc3nnc(Cc4ccc5ncccc5c4)n3n2)cc1C(F)(F)F | GTL16 | > 7.00

---

Measured EC50 accompanies every entry in the list below.
System: GTL16
assay_overview: GTL16 cell assay (EC50)
Assay type: cell-based
cond: Homo sapiens, GTL 16; Table 1

compound | experimental_system | EC50
Nc1nc2ccc(Cc3nnc4ccc(-c5ccccc5)nn34)cc2s1 [compound 42] | GTL16 | 1000 to 10000 nM
Cc1cccc(-c2ccc3nnc(Cc4ccc5ncccc5c4)n3n2)c1 [compound 35] | GTL16 | 100 to 1000 nM
COc1cccc(Oc2ccc3nnc(Cc4ccc5ncccc5c4)n3n2)c1 [compound 9] | GTL16 | 100 to 1000 nM
C/C=C/c1ccc2nnc(Cc3ccc4ncccc4c3)n2n1 [compound 46] | GTL16 | 100 to 1000 nM
CNC(=O)c1ccc(-c2ccc3nnc(C(C)c4ccc5ncccc5c4)n3n2)cc1F (stereo not drawn) [compound 80] | GTL16 | < 100 nM
CS(=O)(=O)c1cccc(-c2ccc3nnc(Cc4ccc5ncsc5c4)n3n2)c1 [compound 102] | GTL16 | 100 to 1000 nM
Fc1ccc(-c2ccc3nnc(Cc4ccc5ncccc5c4)n3n2)cc1 [compound 63] | GTL16 | 100 to 1000 nM
CCNC(=O)c1ccc(-c2ccc3nnc(Cc4ccc5ncsc5c4)n3n2)cc1F [compound 94] | GTL16 | 100 to 1000 nM
Cc1cc2ncccc2cc1Cc1nnc2ccc(-c3cccc(C#N)c3)nn12 [compound 85] | GTL16 | < 100 nM
NCc1cccc(-c2ccc3nnc(Cc4ccc5ncccc5c4)n3n2)c1 [compound 55] | GTL16 | 100 to 1000 nM
N#Cc1cccc(-c2ccc3nnc(Cc4ccc5ncccc5c4)n3n2)c1 [compound 59] | GTL16 | < 100 nM
NC(=O)c1ccc(-c2ccc3nnc(Cc4ccc5ncccc5c4)n3n2)cc1 [compound 24] | GTL16 | < 100 nM
c1ccc(-c2ccc3nnc(Cc4ccc5ncccc5c4)n3n2)cc1 [compound 16] | GTL16 | 100 to 1000 nM
OCc1ccc(-c2ccc3nnc(Cc4ccc5ncccc5c4)n3n2)cc1 [compound 54] | GTL16 | 100 to 1000 nM
CN(C)C(=O)c1ccc(-c2ccc3nnc(Cc4ccc5ncccc5c4)n3n2)cc1 [compound 34] | GTL16 | 100 to 1000 nM
Fc1ccc(-c2ccc3nnc(Cc4ccc5ncccc5c4)n3n2)cc1F [compound 73] | GTL16 | < 100 nM
NS(=O)(=O)c1cccc(-c2ccc3nnc(Cc4ccc5ncccc5c4)n3n2)c1 [compound 25] | GTL16 | 100 to 1000 nM
O=C(c1ccc(-c2ccc3nnc(Cc4ccc5ncccc5c4)n3n2)cc1)N1CCOCC1 [compound 23] | GTL16 | 100 to 1000 nM
Cc1cc(F)cc(-c2ccc3nnc(Cc4ccc5ncccc5c4)n3n2)c1 [compound 76] | GTL16 | < 100 nM
NC(=O)c1ccc(F)c(-c2ccc3nnc(Cc4ccc5ncccc5c4)n3n2)c1 [compound 4] | GTL16 | 1000 to 10000 nM
Fc1cc(F)cc(-c2ccc3nnc(Cc4ccc5ncccc5c4)n3n2)c1 [compound 70] | GTL16 | 100 to 1000 nM
Oc1ccc(Cc2nnc3ccc(-c4ccccc4)nn23)cc1 [compound 14] | GTL16 | 1000 to 10000 nM
C[C@@H](c1ccc2ncsc2c1)c1nnc2ccc(-c3cccc(C#N)c3)nn12 [compound 103] | GTL16 | < 100 nM
FC(F)(F)c1cccc(-c2ccc3nnc(Cc4ccc5ncccc5c4)n3n2)c1 [compound 78] | GTL16 | < 100 nM
O=C(NCC(F)(F)F)c1ccc(-c2ccc3nnc(Cc4ccc5ncccc5c4)n3n2)cc1 [compound 72] | GTL16 | 100 to 1000 nM
CC(=O)Nc1ccc(-c2ccc3nnc(Cc4ccc5ncccc5c4)n3n2)cc1 [compound 52] | GTL16 | 100 to 1000 nM
N#Cc1cccc(-c2ccc3nnc(C(F)c4ccc5ncccc5c4)n3n2)c1 (stereo not drawn) [compound 22] | GTL16 | 1000 to 10000 nM
CC(c1ccc2ncsc2c1)c1nnc2ccc(-c3cccc(C#N)c3)nn12 (stereo not drawn) [compound 81] | GTL16 | < 100 nM
N#Cc1cccc(-c2ccc3nnc(Cc4ccc5ncsc5c4)n3n2)c1 [compound 98] | GTL16 | 100 to 1000 nM
CN1CCN(c2ccc3nnc(Cc4ccc5ncccc5c4)n3n2)CC1 [compound 113] | GTL16 | 100 to 1000 nM
c1ccc(-c2ccc3nnc(Cc4ccc5ncsc5c4)n3n2)cc1 [compound 43] | GTL16 | 100 to 1000 nM
c1ccc(Oc2ccc3nnc(Cc4ccc5ncccc5c4)n3n2)cc1 [compound 8] | GTL16 | 100 to 1000 nM
N#Cc1ccc(-c2ccc3nnc(Cc4ccc5ncccc5c4)n3n2)cc1 [compound 60] | GTL16 | 100 to 1000 nM
C=Cc1ccc2nnc(Cc3ccc4ncccc4c3)n2n1 [compound 107] | GTL16 | 100 to 1000 nM
Cn1cnc2ccc(Cc3nnc4ccc(-c5ccccc5)nn34)cc21 [compound 68] | GTL16 | 100 to 1000 nM
Cc1cc2ncccc2cc1Cc1nnc2ccc(-c3cnn(C)c3)nn12 [compound 84] | GTL16 | < 100 nM
